# TGT: human ENT1 (Homo sapiens)
# Construct: JAR cells expressing ENT1 were purchased from ATCC; host or cells: JAR cells
# Sequence (Q99808 whole entry): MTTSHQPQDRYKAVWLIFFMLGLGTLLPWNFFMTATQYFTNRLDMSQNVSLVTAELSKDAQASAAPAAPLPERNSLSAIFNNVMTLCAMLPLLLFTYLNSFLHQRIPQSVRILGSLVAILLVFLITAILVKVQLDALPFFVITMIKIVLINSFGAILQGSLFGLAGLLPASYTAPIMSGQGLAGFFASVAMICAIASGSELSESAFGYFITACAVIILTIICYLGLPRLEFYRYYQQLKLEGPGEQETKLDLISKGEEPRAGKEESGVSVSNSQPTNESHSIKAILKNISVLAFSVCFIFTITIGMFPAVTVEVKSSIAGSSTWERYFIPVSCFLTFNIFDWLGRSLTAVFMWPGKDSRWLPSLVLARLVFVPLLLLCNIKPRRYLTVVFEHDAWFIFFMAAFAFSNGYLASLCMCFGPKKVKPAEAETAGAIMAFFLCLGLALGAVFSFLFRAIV
# METHOD SUMMARY: ENT1 binding assay (competition with Sahenta-DY647 on JAR cells)
# MEASUREMENT PARAMETERS: competition with SAHENTA-DY647 binding; IC50 categorized; read-out: Binding Assay IC50
pIC50: −log10 of the molar value.
PARAMETER MEASURED: pIC50

See these solved cases before continuing.
C[C@H]1O[C@@H](n2cnc3c(OCc4cccc(OC(F)F)c4)ncnc32)[C@H](O)[C@@H]1O [Compound 246]: < 6.30
C[C@H]1O[C@@H](n2cnc3c(OCc4ccc(C(F)F)cc4)ncnc32)[C@H](O)[C@@H]1O [Compound 182]: 6.30 to 7.70
C[C@H]1O[C@@H](n2cnc3c(OCCc4ccc(OC(F)F)nc4)ncnc32)[C@H](O)[C@@H]1O [Compound 278]: < 6.30

Lab note: each molecule below needs its pIC50 filled in.
1. C[C@H]1O[C@@H](n2cnc3c(OCc4ccc([N+](=O)[O-])cc4)nc(O)nc32)[C@H](O)[C@@H]1O [Compound 256]
2. C[C@H]1O[C@@H](n2cnc3c(-c4noc(-c5ccc([N+](=O)[O-])cc5)n4)ncnc32)[C@H](O)[C@@H]1O [Compound 421]
3. C[C@H]1O[C@@H](n2c(N[C@H]3CC[C@@](C)(O)CC3)nc3c(OCc4ccc(F)cc4)ncnc32)[C@H](O)[C@@H]1O [Compound 130]
4. C[C@H]1O[C@@H](n2c(NCC(F)(F)F)nc3c(OCc4ccc([N+](=O)[O-])cc4)ncnc32)[C@H](O)[C@@H]1O [Compound 24]

1: < 6.30; 2: < 6.30; 3: 7.70 to 9.00; 4: 7.70 to 9.00
